Entry source: paper PMC9482650

molecular target: GIPC2, Q8TF65; assay: holdup assay; parameters: key: below the threshold = too weak to quantify, mostly under pKd 3.1 to 4; conditions: plain residues with an end cap or a label only (N-terminal biotin on a linker: ttds)
Sequence (Q8TF65 112-203): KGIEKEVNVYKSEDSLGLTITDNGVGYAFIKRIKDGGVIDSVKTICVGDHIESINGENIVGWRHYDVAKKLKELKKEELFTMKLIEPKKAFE
measured attribute: pKd

Guide cases for pKd, answers given:
| binder | pKd |
| --- | --- |
| SSRTRRETQL [HPV16-E6, P03126] | below the threshold |
| QSARYRDTEL [TJP2, Q9UDY2] | below the threshold |
| SVWLRKETRV [CYSLTR2, Q9NS75] | below the threshold |
| GQDSREETQL [KCNT2, Q6UVM3] | 3.79 |

Param item = RSLEEEESQL [GRASP, Q7Z6J2] ; retrieve measured pKd.
4.17
